# assay_name: Pharmacokinetic analysis in mice after i.p. injection
# Format: in vivo
# experimental_parameters: male, BALB/cJ, ip; mouse plasma after i.p. 100 mg/kg DP1-07; parent and products DP1-07P1, DP1-07P2
measured_metric: MRT last (h)
Numbers only here, please. The scale is h.

1) COc1ccc(/C=C2\CCCc3c2nc2ccccc2c3C(=O)O)cc1OC [DP1-07P2]
8.86

Request: // lookup MRT last for COc1ccc(/C=C2\CCCc3c2nc2ccccc2c3C(=O)OC(C)C(=O)OC(C)(C)C)cc1OC (stereo not drawn) [DP1-07]
Result: 10.7

Request: And COc1ccc(/C=C2\CCCc3c2nc2ccccc2c3C(=O)OC(C)C(=O)O)cc1OC (stereo not drawn) [DP1-07P1] ?
Result: 10.5
